Entries and their measured Population Mitochondria Different-Phenotype (%) follow.
- Tested on: U2OS
- test details: Multiplex assay against U2OS
- Format: toxicity, cell-based
- measurement context: human, 12 h, 1 µM, compound concentration 1 uM, replicate 2
Please reply with the bare figure in % and do not write the unit itself.

// worked examples, Population Mitochondria Different-Phenotype (%) included
> print(dat)
                                   molecule  measurement.unit  assay.value
1  CNC(=O)Nc1ccc(-c2nc(N3CC4CCC(C3)O4)c3cnn(C4CCC5(CC4)OCCO5)c3n2)cc1                 %           13
2  COc1cc(Nc2nccc(-c3cnn4nc(OC)ccc34)n2)cc(C(F)(F)F)c1                 %           16
3  CN1CCN(Cc2ccc(Nc3ncc(Cl)c(Nc4ccccc4S(=O)(=O)N(C)C)n3)cc2)CC1 [DUBERMATINIB]                 %           16
4  CC1=C(C(=O)Nc2cc3cn[nH]c3cc2F)C(c2ccc(C(F)(F)F)cc2)CC(=O)N1 (configuration not stated)                 %            9
5  COc1cc2ncn(-c3cc(OCc4ccccc4C(F)(F)F)c(C(N)=O)s3)c2cc1OC [GW843682X]                 %           10
6  O=c1cc(N2CCOCC2)oc2c(-c3cccc4c3sc3ccccc34)cccc12                 %            6
7  O=C(c1cc2c(cc1F)OC(c1ccc(F)cc1)(c1ccc(Cl)cc1Cl)O2)N1CCOCC1 (configuration not stated)                 %           12
8  CC(C)c1noc(N2CCC(COc3ccc(-c4ccc(S(C)(=O)=O)cc4)nc3)CC2)n1 [GSK-1292263]                 %            4

## Task Bench note: what Population Mitochondria Different-Phenotype (%) did `CC(C)Oc1ccccc1C(=O)Nc1ccccc1C(=O)Nc1cccc(S(=O)(=O)C(F)(F)F)c1` show?
## Result 45

## Task For CCc1nn(CCCN2CCN(c3cccc(Cl)c3)CC2)c(=O)n1CCOc1ccccc1.Cl [NEFAZODONE HYDROCHLORIDE] then?
## Result 9

## Task Another: COc1ccc(-c2ccc3ncc4c(c3c2)n(-c2ccc(N3CCNCC3)c(C(F)(F)F)c2)c(=O)n4C)cn1.O=C(O)/C=C\C(=O)O [BGT-226]
## Result 94

## Task // next record `O=c1[nH]c2ccccc2n1C1CCN(Cc2ccc(-c3[nH]c4cc5ncnc5cc4nc3-c3ccccc3)cc2)CC1`
## Result 16

## Task Subsequent entry: `CC(C)NC(=O)N1CC[C@H](NC2=Nc3cc(F)ccc3N(CC(F)F)c3ccc(Cl)cc32)C1`
## Result 18

## Task Next molecule: `Cc1nc(N2CC[C@H](O)C2)ncc1-c1cc(C(F)(F)F)cc2[nH]ncc12`
## Result 28

## Task // same read-out, input: CC(C)CC(=O)Nc1[nH]nc2c1CN(C(=O)C1CCN(C)CC1)C2(C)C [PHA-793887]
## Result 39

## Task Then Cc1c[nH]c2nccc(Oc3c(F)cc(Nc4cc(Cl)nc(N)n4)cc3F)c12 [BAY-549] ?
## Result 6

## Task Would you mind doing `CCOC(=O)Nc1cc(-c2ccc(C)c(NS(C)(=O)=O)c2)nn2c(C)nnc12` as well?
## Result 31
